# MIC per record follows
Tested on: Kleb. pneumo. SK 4200
protocol-summary: MIC in vitro
Type: cell-based
protocol-conditions: Kleb. pneumo. SK 4200; read-out: MIC in vitro
Note: unit µg/mL is implicit; provide only the numeric part.

• CCOC(=O)Cc1nc(SCC2=C(C(=O)O)N3C(=O)C(NC(=O)[C@H](N)c4ccccc4)[C@H]3SC2)n[nH]1 (stereo partly drawn) = 25
• O=C(O)Cc1nc(SCC2=C(C(=O)O)N3C(=O)C(NC(=O)[C@H](O)c4ccccc4)[C@H]3SC2)n[nH]1 (stereo partly drawn) = 1.6

**Query** Hello, please tell me recorded MIC for this one: N[C@@H](C(=O)NC1C(=O)N2C(C(=O)O)=C(CSc3n[nH]c(CC(=O)O)n3)CS[C@H]12)c1ccc(O)cc1 (stereo partly drawn)
**Result** 1.6

**Query** Recall and state the measured MIC for N[C@@H](C(=O)NC1C(=O)N2C(C(=O)O)=C(CSc3n[nH]c(CC(=O)O)n3)CS[C@H]12)c1ccccc1 (stereo partly drawn) .
**Result** 1.6

**Query** Specify measured MIC for NC(=O)c1nn[nH]c1SCC1=C(C(=O)O)N2C(=O)C(NC(=O)[C@H](N)c3ccc(O)cc3)[C@H]2SC1 (stereo partly drawn) .
**Result** 6

**Query** Let me know recorded MIC for CCOC(=O)c1nn[nH]c1SCC1=C(C(=O)O)N2C(=O)C(NC(=O)[C@H](N)c3ccccc3)[C@H]2SC1 (stereo partly drawn) , thanks.
**Result** 25
